subjectOfTest: ACC2 (Homo sapiens (Human))
Sequence (O00763 whole entry, species assumed): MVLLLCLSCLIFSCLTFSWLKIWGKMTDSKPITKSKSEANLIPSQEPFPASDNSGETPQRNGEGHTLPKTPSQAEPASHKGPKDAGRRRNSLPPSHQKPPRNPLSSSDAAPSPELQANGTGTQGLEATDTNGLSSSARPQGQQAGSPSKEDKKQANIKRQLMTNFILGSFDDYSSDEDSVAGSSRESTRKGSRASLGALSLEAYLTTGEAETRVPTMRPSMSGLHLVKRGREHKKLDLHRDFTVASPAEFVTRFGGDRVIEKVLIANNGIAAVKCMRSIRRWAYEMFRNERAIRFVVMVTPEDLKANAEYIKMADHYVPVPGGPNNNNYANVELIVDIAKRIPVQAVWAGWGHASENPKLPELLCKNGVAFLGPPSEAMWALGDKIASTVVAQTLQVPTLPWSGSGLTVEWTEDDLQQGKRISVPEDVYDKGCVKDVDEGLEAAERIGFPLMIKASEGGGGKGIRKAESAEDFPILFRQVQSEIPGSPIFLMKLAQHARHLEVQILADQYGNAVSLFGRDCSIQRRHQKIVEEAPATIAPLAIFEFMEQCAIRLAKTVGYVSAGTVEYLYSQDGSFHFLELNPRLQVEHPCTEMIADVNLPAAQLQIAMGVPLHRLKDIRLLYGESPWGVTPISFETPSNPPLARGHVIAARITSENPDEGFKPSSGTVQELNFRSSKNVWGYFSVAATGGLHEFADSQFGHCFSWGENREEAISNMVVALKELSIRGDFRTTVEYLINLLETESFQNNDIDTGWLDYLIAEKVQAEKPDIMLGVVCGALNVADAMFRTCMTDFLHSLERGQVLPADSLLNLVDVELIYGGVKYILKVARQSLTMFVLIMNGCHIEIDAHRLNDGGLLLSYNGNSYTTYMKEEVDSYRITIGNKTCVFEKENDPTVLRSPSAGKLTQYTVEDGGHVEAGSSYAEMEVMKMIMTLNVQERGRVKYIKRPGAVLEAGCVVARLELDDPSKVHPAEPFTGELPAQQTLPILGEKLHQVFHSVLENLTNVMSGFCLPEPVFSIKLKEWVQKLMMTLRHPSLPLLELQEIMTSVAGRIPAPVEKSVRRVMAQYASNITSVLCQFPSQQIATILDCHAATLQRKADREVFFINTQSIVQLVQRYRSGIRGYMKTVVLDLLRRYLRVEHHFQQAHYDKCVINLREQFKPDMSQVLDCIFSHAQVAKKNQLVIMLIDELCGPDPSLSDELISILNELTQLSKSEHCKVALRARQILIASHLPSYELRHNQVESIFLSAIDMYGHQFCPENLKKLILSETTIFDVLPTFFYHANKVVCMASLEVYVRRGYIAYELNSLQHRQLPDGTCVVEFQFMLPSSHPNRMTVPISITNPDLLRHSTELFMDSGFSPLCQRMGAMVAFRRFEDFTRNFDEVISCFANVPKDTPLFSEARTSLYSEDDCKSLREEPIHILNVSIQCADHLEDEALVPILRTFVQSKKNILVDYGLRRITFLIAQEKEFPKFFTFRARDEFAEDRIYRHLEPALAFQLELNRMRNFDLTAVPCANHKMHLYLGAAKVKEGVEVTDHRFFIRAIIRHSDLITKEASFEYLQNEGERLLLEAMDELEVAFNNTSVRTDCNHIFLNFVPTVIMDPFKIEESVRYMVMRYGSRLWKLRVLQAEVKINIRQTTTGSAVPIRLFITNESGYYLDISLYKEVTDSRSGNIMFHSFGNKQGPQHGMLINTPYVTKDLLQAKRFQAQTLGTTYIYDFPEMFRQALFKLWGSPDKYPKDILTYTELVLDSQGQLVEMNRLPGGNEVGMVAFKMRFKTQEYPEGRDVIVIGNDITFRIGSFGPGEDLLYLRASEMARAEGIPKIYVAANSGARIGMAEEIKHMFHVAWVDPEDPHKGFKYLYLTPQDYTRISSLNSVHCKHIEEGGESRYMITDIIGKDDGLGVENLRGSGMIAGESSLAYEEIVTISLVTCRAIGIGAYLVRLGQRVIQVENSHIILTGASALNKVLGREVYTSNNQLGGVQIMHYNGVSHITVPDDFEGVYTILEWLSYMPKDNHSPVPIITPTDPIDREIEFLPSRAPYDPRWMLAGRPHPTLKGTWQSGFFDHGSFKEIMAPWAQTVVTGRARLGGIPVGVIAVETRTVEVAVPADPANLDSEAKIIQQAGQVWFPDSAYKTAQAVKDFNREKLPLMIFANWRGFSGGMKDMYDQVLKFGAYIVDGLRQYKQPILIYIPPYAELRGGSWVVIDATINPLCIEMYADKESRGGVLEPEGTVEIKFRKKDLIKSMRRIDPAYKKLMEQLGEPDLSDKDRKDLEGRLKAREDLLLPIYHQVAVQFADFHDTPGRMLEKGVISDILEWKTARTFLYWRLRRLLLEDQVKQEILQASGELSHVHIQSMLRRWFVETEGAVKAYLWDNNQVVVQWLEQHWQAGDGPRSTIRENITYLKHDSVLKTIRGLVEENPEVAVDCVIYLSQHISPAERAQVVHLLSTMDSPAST
assaySummary: In vitro ACC inhibition assay (ADP-Glo), ACC2
Type: biochemical
settings: ND630 versus RJ compounds; isoform not given; read-out: IC50 (μM) ND630/RJ-cmps(%)
For each of the molecules below, state its IC50.

Recorded results for 5 molecules are shown here.
COC(=O)C1(n2c(=O)c3c(C)c(Br)sc3n(C[C@H](OC3CCOCC3)c3ccccc3OC)c2=O)CCC1 :: > 0.01 µM
CNC(=O)C1(n2c(=O)c3c(C)c(-c4ncco4)sc3n(CC(OC3CCOCC3)c3ccccc3OC)c2=O)CC1 (centres unmarked) :: 0.005 to 0.01 µM
COc1ccccc1[C@H](Cn1c(=O)n(C2(C(N)=O)CC2)c(=O)c2c(C)c(Br)sc21)OC1CCOCC1 :: > 0.01 µM
COc1ccccc1C(O)Cn1c(=O)n(C(C)(C)C(=O)O)c(=O)c2cc(C)c(-c3ncco3)cc21 (centres unmarked) :: 0.005 to 0.01 µM
COc1ccccc1C(Cn1c(=O)n(C2(C(N)=O)CCCC2)c(=O)c2c(C)c(-c3ncco3)sc21)OC1CCOCC1 (centres unmarked) :: 0.005 to 0.01 µM

Provide reported IC50 for each item, in the same order as listed.
1. COc1ccccc1[C@H](Cn1c(=O)n(C2(CC(=O)O)CC2)c(=O)c2c(C)c(Br)sc21)OC1CCOCC1
2. CNC(=O)C1(n2c(=O)c3c(C)c(-c4ncco4)sc3n(CC(OC3CCOCC3)c3ccccc3OC)c2=O)CCC1 (centres unmarked)

## Output
1. > 0.01 µM
2. 0.003 to 0.005 µM
